target: 5-hydroxytryptamine receptor 2A (Homo sapiens)
Sequence (P28223 whole entry): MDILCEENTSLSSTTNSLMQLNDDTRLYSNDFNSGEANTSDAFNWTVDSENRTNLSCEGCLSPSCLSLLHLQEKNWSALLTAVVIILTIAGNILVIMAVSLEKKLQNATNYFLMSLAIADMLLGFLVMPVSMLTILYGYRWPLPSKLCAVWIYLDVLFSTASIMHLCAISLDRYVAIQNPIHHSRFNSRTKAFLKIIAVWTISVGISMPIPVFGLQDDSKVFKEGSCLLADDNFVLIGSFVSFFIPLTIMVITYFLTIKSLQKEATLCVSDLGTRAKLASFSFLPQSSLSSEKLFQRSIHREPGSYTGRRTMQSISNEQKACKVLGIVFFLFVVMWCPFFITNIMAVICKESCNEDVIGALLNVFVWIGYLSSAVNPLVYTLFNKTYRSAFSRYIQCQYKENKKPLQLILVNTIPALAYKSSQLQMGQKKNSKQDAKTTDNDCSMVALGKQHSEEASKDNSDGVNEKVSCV
Kindly supply the reported pKi values for the records listed here.
Answers are plain numbers, as −log10 of the molar value.

Use the examples below as a reference point.
>  <Smiles structure>
O=C1COc2cc(CN3CCN(c4ccc(Cl)cc4)CC3)ccc2N1

>  <pKi>
5.78

$$$$
>  <Smiles structure>
CC(C)Oc1cccnc1N(C)C1CCN(Cc2ccc(I)cc2)CC1

>  <pKi>
6.56

$$$$

Attention now shifts to the item below.
q: Kindly state the measured pKi obtained for Fc1ccc(OC[C@@H]2CC[C@H]3CN(c4ncc(F)cn4)CCN3C2)cc1 with 5-hydroxytryptamine receptor 2A (Homo sapiens).
a: 6.30
